tested on: Daudi (human B-lymphoblastoid cell from Burkitt's Lymphoma patient); assay: Inhibition of cellular proliferation, Daudi cells (CellTiter-Glo); format: cell-based; conditions: EC50 measured as illustrated in Example 150 (CellTiter-Glo)
pEC50: −log10 of the molar value.
TEST_READOUT: pEC50

CC1CN(c2ccc(Nc3ncc4cc5n(c4n3)C3(CCCCC3)CNC5=O)nc2)CCN1CCC(C)(C)C (centres unmarked) [G] = 5.82
CC(C)N1CCN(Cc2ccc(Nc3ncc4cc5n(c4n3)C3(CCCCC3)CNC5=O)nc2)CC1 [EE] = 6.59
C[C@@H]1CN(c2ccc(Nc3ncc4cc5n(c4n3)C3(CCCCC3)CNC5=O)nc2)C[C@H](C)N1CCC(C)(C)C [M] = 5.84
C[C@H](O)CN1CCN(c2ccc(Nc3ncc4cc5n(c4n3)C3(CCCC3)CNC5=O)nc2)C[C@H]1C [XX] = 6.30
CC(C)N1CCN(c2ccc(Nc3ncc4cc5n(c4n3)C3(CCCCC3)CNC5=O)nc2)CC1C (centres unmarked) [PP] = 6.59

A: CCN(CC)C1CCN(c2ccc(Nc3ncc4cc5n(c4n3)C3(CCCCC3)CNC5=O)nc2)C1 (centres unmarked) [QQ]
B: CCN1[C@H](C)CN(c2ccc(Nc3ncc4cc5n(c4n3)C3(CCCCC3)CNC5=O)nc2)C[C@@H]1C [FF]
-- ask For the pair A and B , which member has the lower pEC50 number? Answer with the label corresponding to your selection.
-- reply A
(A: 6.07, B: 6.42)

I: CCN(CC)C1CCN(c2ccc(Nc3ncc4cc5n(c4n3)C3(CCCC3)CNC5=O)nc2)CC1 [LLL]
II: CCOCCN1CCN(c2ccc(Nc3ncc4cc5n(c4n3)C3(CCCC3)CNC5=O)nc2)CC1 [MMM]
-- ask For the pair I and II , which member has the lower pEC50 number? Answer with the label corresponding to your selection.
-- reply I
(I: 5.81, II: 6.53)

---

tested on: Daudi (human B-lymphoblastoid cell from Burkitt's Lymphoma patient); assay: Inhibition of cellular proliferation, Daudi cells (CellTiter-Glo); type: cell-based; details: EC50 measured as illustrated in Example 150 (CellTiter-Glo)
TEST_READOUT: EC50 (µM)

Worked set:
CC(C)N1CCN(C(=O)c2ccc(Nc3ncc4cc5n(c4n3)C3(CCCCC3)CNC5=O)nc2)CC1 = 0.347
CC1CN(c2ccc(Nc3ncc4cc5n(c4n3)C3(CCCCC3)CNC5=O)nc2)CCN1CC(C)(C)O (stereo not shown) = 0.731
O=C1NCC2(CCCC2)n2c1cc1cnc(Nc3ccc(N4CCC(N5CCCCC5)CC4)cn3)nc12 = 0.984
CC1CN(c2ccc(Nc3ncc4cc5n(c4n3)C3(CCCC3)CNC5=O)nc2)CCN1CC1CC1 (stereo not shown) = 0.519
CCN(CC)C1CCN(c2ccc(Nc3ncc4cc5n(c4n3)C3(CCCC3)CNC5=O)nc2)C1 (stereo not shown) = 3.16
CCC(C)[C@@H]1CNC(=O)c2cc3cnc(Nc4ccc(N5CCNCC5)cn4)nc3n21 (stereo partly shown) = 1.07
O=C1NCC2(CCCCC2)n2c1cc1cnc(Nc3ccc(N4CCNCC4)cn3)nc12 = 0.561
C[C@H](O)CN1CCN(c2ccc(Nc3ncc4cc5n(c4n3)C3(CCCCC3)CNC5=O)nc2)CC1 = 0.281

I: C[C@@H]1CN(c2ccc(Nc3ncc4cc5n(c4n3)C3(CCCCC3)CNC5=O)nc2)CCN1C[C@@H](C)O
II: C[C@@H]1CN(c2ccc(Nc3ncc4cc5n(c4n3)C3(CCCCC3)CNC5=O)nc2)CCN1C
-- ask Higher EC50: I or II ? Answer with the label corresponding to your selection.
-- reply II
(II: 1.04 µM, I: 0.362 µM)

---

system: Daudi (human B-lymphoblastoid cell from Burkitt's Lymphoma patient); experiment: Inhibition of cellular proliferation, Daudi cells (CellTiter-Glo); assay type: cell-based; details: EC50 measured as illustrated in Example 150 (CellTiter-Glo)
TEST_READOUT: EC50 (nM)

Worked set:
CN1CCN(C(=O)c2ccc(Nc3ncc4cc5n(c4n3)C3(CCCC3)CNC5=O)nc2)CC1 [BBB] = 758
C[C@@H]1CN(c2ccc(Nc3ncc4cc5n(c4n3)C3(CCCC3)CNC5=O)nc2)C[C@H](C)N1 [DDD] = 839
O=C1NCC2(CCCCC2)n2c1cc1cnc(Nc3ccc(N4CCC(N5CCC(C(F)(F)F)CC5)CC4)cn3)nc12 [X] = 318
C[C@@H](O)CN1CCN(c2ccc(Nc3ncc4cc5n(c4n3)C3(CCCCC3)CNC5=O)nc2)CC1 [S] = 634
CCN(CC)C1CCN(C(=O)c2ccc(Nc3ncc4cc5n(c4n3)C3(CCCCC3)CNC5=O)nc2)C1 (centres unmarked) [JJ] = 389

P: C[C@H]1CN(c2ccc(Nc3ncc4cc5n(c4n3)C3(CCCCC3)CNC5=O)nc2)CCN1C [R]
Q: CC1(C)CN(c2ccc(Nc3ncc4cc5n(c4n3)C3(CCCCC3)CNC5=O)nc2)CCN1C1CC1 [BB]
R: C[C@@H]1CN(c2ccc(Nc3ncc4cc5n(c4n3)C3(CCCCC3)CNC5=O)nc2)C[C@H](C)N1C[C@@H](C)O [MM]
-- ask Arrange items by their EC50 values in increasing order. Reply: labels, ordered per the request.
-- reply P, Q, R
(P: 299 nM, Q: 472 nM, R: 681 nM)

---

system: Daudi (human B-lymphoblastoid cell from Burkitt's Lymphoma patient); assay: Inhibition of cellular proliferation, Daudi cells (CellTiter-Glo); format: cell-based; conditions: EC50 measured as illustrated in Example 150 (CellTiter-Glo)
TEST_READOUT: EC50 (µM)

Worked set:
O=C1NCC2(CCCC2)n2c1cc1cnc(Nc3ccc(C(=O)N4CCN(CC5CC5)CC4)cn3)nc12 = 0.668
CC(C)(C)CCN1CCN(c2ccc(Nc3ncc4cc5n(c4n3)C3(CCCC3)CNC5=O)nc2)CC1(C)C = 1.86
CC1(C)CN(c2ccc(Nc3ncc4cc5n(c4n3)C3(CCCCC3)CNC5=O)nc2)CCN1CC1CC1 = 0.719

1: C[C@@H]1CN(c2ccc(Nc3ncc4cc5n(c4n3)C3(CCCCC3)CNC5=O)nc2)CCN1
2: CC(C)(O)CN1CCN(c2ccc(Nc3ncc4cc5n(c4n3)C3(CCCC3)CNC5=O)nc2)CC1
-- ask Higher EC50: 1 or 2 ? Answer with the label corresponding to your selection.
-- reply 2

---

test system: Daudi (human B-lymphoblastoid cell from Burkitt's Lymphoma patient); test: Inhibition of cellular proliferation, Daudi cells (CellTiter-Glo); format: cell-based; settings: EC50 measured as illustrated in Example 150 (CellTiter-Glo)
TEST_READOUT: EC50 (nM)

CCC(C)CN1CCN(c2ccc(Nc3ncc4cc5n(c4n3)C3(CCCC3)CNC5=O)nc2)CC1 (centres unmarked) = 3340
O=C1NCC2(CCCC2)n2c1cc1cnc(Nc3ccc(N4CCC(N5CCOCC5)CC4)cn3)nc12 = 1690
O=C1NCC2(CCCCC2)n2c1cc1cnc(Nc3ccc(N4CCN(CC5CC5)CC4)cn3)nc12 = 681

1: CN1CCN(c2ccc(Nc3ncc4cc5n(c4n3)C3(CCCCC3)CNC5=O)nc2)CC1(C)C
2: CCN(CC)C1CCN(C2CCN(c3ccc(Nc4ncc5cc6n(c5n4)C4(CCCCC4)CNC6=O)nc3)CC2)C1 (centres unmarked)
-- ask Higher EC50: 1 or 2 ? Answer with the label corresponding to your selection.
-- reply 1
(1: 297 nM, 2: 158 nM)

I: CC(C)N1CCN(c2ccc(Nc3ncc4cc5n(c4n3)C3(CCCCC3)CNC5=O)nc2)C[C@@H]1C
II: C[C@H]1CN(c2ccc(Nc3ncc4cc5n(c4n3)C3(CCCCC3)CNC5=O)nc2)CCN1CC1CC1
-- ask Higher EC50: I or II ? Answer with the label corresponding to your selection.
-- reply II

---

system: Daudi (human B-lymphoblastoid cell from Burkitt's Lymphoma patient); test: Inhibition of cellular proliferation, Daudi cells (CellTiter-Glo); assay type: cell-based; details: EC50 measured as illustrated in Example 150 (CellTiter-Glo)
pEC50: −log10 of the molar value.
TEST_READOUT: pEC50

Worked set:
CC(C)[C@H]1CNC(=O)c2cc3cnc(Nc4ccc(N5CCNCC5)cn4)nc3n21 = 5.85
O=C1NCC2(CCCCC2)n2c1cc1cnc(Nc3ccc(N4CCC(N5CCCCC5)CC4)cn3)nc12 = 6.91
O=C1NCC2(CCCCC2)n2c1cc1cnc(Nc3ccc(C(=O)N4CCNCC4)cn3)nc12 = 6.26
CN1CCN(c2ccc(Nc3ncc4cc5n(c4n3)C3(CCCC3)CNC5=O)nc2)CC1 = 6.23
O=C1NCC2(CCCCC2)n2c1cc1cnc(Nc3ccc(N4CCC(N5CCOCC5)CC4)cn3)nc12 = 6.44

A: C[C@H](O)CN1[C@H](C)CN(c2ccc(Nc3ncc4cc5n(c4n3)C3(CCCCC3)CNC5=O)nc2)C[C@@H]1C
B: O=C1NCC2(CCCCC2)n2c1cc1cnc(Nc3ccc(N4CCN(C5CCC5)CC4)cn3)nc12
-- ask For the pair A and B , which member has the lower pEC50 number? Answer with the label corresponding to your selection.
-- reply B

a: CCC(C)CN1[C@H](C)CN(c2ccc(Nc3ncc4cc5n(c4n3)C3(CCCC3)CNC5=O)nc2)C[C@@H]1C (stereo partly drawn)
b: CC1(C)CN(c2ccc(Nc3ncc4cc5n(c4n3)C3(CCCCC3)CNC5=O)nc2)CCN1
-- ask Higher pEC50: a or b ? Answer with the label corresponding to your selection.
-- reply b
(b: 6.60, a: 6.35)

a: CN(C)C1CCN(c2ccc(Nc3ncc4cc5n(c4n3)C3(CCCC3)CNC5=O)nc2)CC1
b: CC1CN(c2ccc(Nc3ncc4cc5n(c4n3)C3(CCCCC3)CNC5=O)nc2)CC(C)N1CC1CC1 (stereo not drawn)
c: CC(C)N1CCN(c2ccc(Nc3ncc4cc5n(c4n3)C3(CCCC3)CNC5=O)nn2)CC1
-- ask Order the 3 compounds from highest to lowest pEC50. Reply: labels, ordered per the request.
-- reply a, b, c
